- experiment_summary: yeast display, Sf9 membrane polyspecificity reagent, FACS + sequencing; frameworks hold sequencing errors
endpoint_name: polyreactivity (PSR sort gate)

In: Form field: reported polyreactivity (PSR sort gate) of QVQLVESGGGLVQAGGSLRLSCAASGSTLYVYAMGWYRQAPGKEREFVADISWSGGSTYYADSVKGRFTISRDNAKNTVYLQMNILKPEDTAVYYCNADFTDSYWSRYDYWGQGTQVTVSS
Out: low polyreactivity

In: Name the reported polyreactivity (PSR sort gate) value associated with the sequence QVQLVESGGGLVQAGGSLRLSCAASGSIFYFNAMGWYRQAPGKERELVAAISSGGGTNYADSVKGRFTISRDNAKNTVYLQMNSLKPEDTAVYYCAAAVSLFYPTWYYFSYDYWGQGTQVTVSS
Out: low polyreactivity

* * *

- experiment_summary: yeast display, Sf9 membrane polyspecificity reagent, FACS + sequencing; frameworks hold sequencing errors
endpoint_name: polyreactivity (PSR sort gate)

In: Consider the sequence shown here: QVQLVESGGGLVQAGGSLRLSCAASGRTFGYYAMGWYRQAPGKERELVAAITRTGGSTHYADSVKGRFTISRDNAKNTVYLQKNSLKPEDTAVYYCARDYRYTIPYDYWGQGTQVTVSS What is its recorded polyreactivity (PSR sort gate)?
Out: low polyreactivity

In: # polyreactivity (PSR sort gate) lookup, item QVQLVESGGGLVQAGGSLRLSCAASGSIFYVNAMGWYRQAPGKERELVAAISYRGGSTYYADSVKGRFTISRDNAKNTVYLQMNSLKPEDTAVYYCAARGYYRPSQTTGRIKYDYWGQGTQVTVSS
Out: high polyreactivity

In: // query polyreactivity (PSR sort gate) value for entry QVQLQESGGGLVQAGGSLRPRCAAGGTIFVSVNMGWYRHAPGEEREFVASITQGATTNYADSLIGRFTISRDNAKNTVYLQMNCQNQEDTAVYYCAVHESGGITFTYWGQGTQVTVSS
Out: high polyreactivity

In: Entry QVQLVESGGGLVQAGGSLRLSCAASGRTFSYNAMGWYRQAPGKERELVAAISSGGSTYYADSVKGRFTISRDNAKNTVYLQMNSLKPEDTAVYYCAADSPSVWGYRYDYDYWGQGTQVTVSS : reported polyreactivity (PSR sort gate) = ?
Out: low polyreactivity

In: So what's the measured polyreactivity (PSR sort gate) for this one? QVQHVESGGGLVQAGGSLRLSCAASGSTFDRYAMAWYRQAPGKERELVAAISRSTGRTNYADSVKGRFTISRDNAKNTVYLQMNSLIPEDTAVYYCAAYRYLRYDYWGQGTQVTVSS
Out: high polyreactivity

Further cases:
In: Give the measured polyreactivity (PSR sort gate) of QVQLVESGGGLVQAGGSLRLSCAASGITFAYYAMGWYRQAPGKERELVAAITRGGSTFYADSVKGRFTISRDNAKNTVYLQMNSLKPEDTAVYYCAKRYGTNTRYYHPYRYDYWGQGTQVTVSS .
Out: high polyreactivity

In: Record request: polyreactivity (PSR sort gate) value, item QVQLVESGGVLVQAGGSLRLSCAASGIIYYGYAMGWYRQAPRKERELVAAISRSGGSTYYADSVKGRFTISRDNAMNTVYFLMNSLKPEDTAVYYCAALVRTTSSYRYNFWGQGTQVTVSS
Out: high polyreactivity

In: Would you mind telling me what polyreactivity (PSR sort gate) value was observed for QVQLVESGGGLVQAGGSLRLSCAASGSTFVTYAMGRYRQAPGKERELVAAISSAGSTNYADSVKGRFTISRDNAKNTVYLQMNSLKPEDTAVYYCARDIQDTYEFDYWGQGTQVTVSS ?
Out: low polyreactivity

In: For the sequence QVQLVESGGGLVQAGGSLRLSCAASGRTFNVYAMGWYRQAPGKERELVAAISKSGGSTYYADSVKGRFTISRDNAKNTVYLQMTSLKPEDTAVYYCNRYRFVRQVRGGGLPYDYWGQGTQVTVSS , what polyreactivity (PSR sort gate) is on record?
Out: high polyreactivity

In: Recorded polyreactivity (PSR sort gate) for QVQLVESGGGLVQAGGSLRLSCAASGSIFYNYAMGWYRQAPGKERELVAAISSNGGSTYYADSVKGRFTISRDNAKNTVYLQMNSLKPEDTAVYYCAKYLSPGERHSYDYWGQGTQVTVSS , please?
Out: high polyreactivity

In: Request the reported polyreactivity (PSR sort gate) associated with QVQLVESGGGLVQAGGSLRLSCAASGITFGNYAMGWYRQAPGKARELVAAITGSGGRTYYADSVKGRFTISRDNANNTVYLQMNRLKPEYTAVYYCNRRQYGRKKQYDYWGQGTQVTVSS
Out: high polyreactivity

* * *

- experiment_summary: yeast display, Sf9 membrane polyspecificity reagent, FACS + sequencing; frameworks hold sequencing errors
endpoint_name: polyreactivity (PSR sort gate)

Below, 4 sequences whose answers are already recorded.
In: Look up polyreactivity (PSR sort gate): QVQLVESGGGLVQAGGSLRLSCAASGSTFYNNAMGWYRQAPGKERESVAAITASGGRTYYADSVKGRFTISRDNAKNTVYLQMNSLKPEDTAVYYCAARGFDRYYWGQGTQVTVSS
Out: high polyreactivity

In: Quick check: polyreactivity (PSR sort gate) of QVQLVESGGGLVQEGGSLRLRCAASGSTFIRYVMGWYRQAPGKERELVAGINSSGGSTNYADSVKGRFTISRDNAKNTVYLQMNSLKPVDTAVYYCNADLRSEYVYWGQGTQVTVSS ?
Out: low polyreactivity

In: Fill blank: measured polyreactivity (PSR sort gate) of the sequence QVQLVESGGGLVQAGGSLRLSCAASGGTFRYYALGWYRQAPGKERALVAAISSGGSTNYADSVKGRFTISRDNAKNTVYLQMNSLKPEDTAVYYCAADVIYYYAYYTYDYWGQGTQVTVSS is ____.
Out: low polyreactivity

In: Give the measured polyreactivity (PSR sort gate) of QVQLVESGGGLVQAGGSLRLSCADSGSTFDSYAMGWSRQAPGKEMDMVAGITWGGGSTYYADSVKGRLTISRDNAKNTVYLQLNSLKPEDTAVYDCAAEEVYYWYTYYYWGEGTQVTVSS .
Out: high polyreactivity

Others:
In: Entry QVQLVESGGGLVQAGRSLRLSCAASGRIFTPNAMGWYRQAPGKERELVAAISSSGRTSYADSLKGRFTNTSDNAKITVYLQMNSLKPEDTAVYYCNATWRWTRRGYDYWGQGTQVTVSS has what polyreactivity (PSR sort gate)?
Out: low polyreactivity

In: Quick one: polyreactivity (PSR sort gate) for QVQLVESGGALVQAGGSLRLSCAASGSIFRWTAMGWYRQAPGKERVLVAAISKSGASTYYADSVKGRFTISRDNAKNTVYLQMNSLKPEDTAVYYCNRVYLGYFRYDYWGQGTQVTVSS ?
Out: high polyreactivity

In: Entry QVQLVESGGGLVQAGGSLRLSWAASGLIFVYNDMGWYRQAPGKEMELVAAIRWSSGRTYYADSVKGRFTISRDNAKNTVYLQMNSLKPEDTAVYYCAAKGVGPERGGYDYWGQGTQVTVSS : reported polyreactivity (PSR sort gate) = ?
Out: high polyreactivity

In: Recorded polyreactivity (PSR sort gate) of QVQLVESGGGLVQAGGSLRLSCAASGSIFGAYAMGWYRQAPGKEREFVAAISSRGGNTYYADSVKGRFTISRDNAKNTVYLQMNSLKPEDTAVYYAVFRYHWKYDYWGQGTQVTVSS , please.
Out: high polyreactivity

In: Quick one: polyreactivity (PSR sort gate) of QVQLVESGGGLVQAGGSLRLSCAASGTTFYKYSMGWYRQAPGKERELVAAITSRGDRTYYADSVKGRFTISRDNANNTVYLQMNSLKPEDTAVYYCAATRWRDAGHSYDYWGQGTQVTVSS ?
Out: high polyreactivity

In: // lookup polyreactivity (PSR sort gate) for QVQLVESGGGLVQAGGSLRLSCAASGRTFEQYSMGWYRQAPGKERELVAAISGSGGSTFYADSVKGRFTISRDNAKNTVYLQMNSLKPEDTAVYYCNAPGDGYLYDHTYDYWGQGTQVTVSS
Out: low polyreactivity

In: Entry QVQLVESGGGLVQAGGSLRLSCAASGSNFSSYAMGWYREAPGKERELVAAIDGSGGSTYADSVKGRFTISRDNAKNTVYLQMNSLKPEDTAVYYCAVDSFLVYSAVRPYDYWGQGTQVTVSS has what polyreactivity (PSR sort gate)?
Out: low polyreactivity

In: What value of polyreactivity (PSR sort gate) has been reported for the following sequence? QVQLVESGGGLVQAGGSLRLSCAASGFTFGSYAMGWYRQAPGKERELVAAITYRGGSTYYADSVKGRFTISRDNAKNTVYLQMNSLKPEDTAVYYCAADSRRKGNYWGQGTQVTVSS
Out: high polyreactivity

In: Bench note: what polyreactivity (PSR sort gate) did QVQLVESGGGLVQAGGSLRLSCAASGSIFSNYAMGWYRQAPGKERELVAAITWSGDDTYYADSVKGRFTISRDNAKTTVYLQMNSLKPVDTAVYYCAAEYHGYRYNYYPYSHYFIYESWGQGTQVTVSS show?
Out: high polyreactivity

In: Which polyreactivity (PSR sort gate) value belongs to QVQLVESGGGLVQAGGSLRLSCAASGRIFRFYAMGWYRKAPGKERELVAAISSSGVRTYYADSVKGRFTISRDNAKNTVYLQMNSLKPEDTAVYYCAKRTVWWSNWHYYPPTYNYWGQGTQVTVSS ?
Out: high polyreactivity

In: Returns the measured polyreactivity (PSR sort gate) for the input sequence. Input: QVQLVESGGGLVQAGGSLRLSCAASGSTFVKYAMGWYRQAPGKERELVARISSSGGSTYYADSVKGRFTISRDNAKNTVYLQMNSLKPEDTAVYYCAAPSLIAKYDYWGQGTQVTVSS
Out: high polyreactivity

In: Request the reported polyreactivity (PSR sort gate) associated with QVHLVESGGGLVQAGGSLRLSCPASGITFEHNAMGWYRQSPGKERELVAAIRWSGGSTYYADSVKGRFTISRDYAKYTVYLQMNSLKPEDTAVYYCAAYKPSTRRYDYWGQGTQVTVSS
Out: high polyreactivity

In: Using the record for QVQLVESGGGLVQAGGSLRLSCAASGLTISWNAMGWYRQAPGKERELVAAISSRGGSTYYADSVKGRFKISRDNAKNTVYLQMNSLKPEDTAVYYCAAEGYTYYPVYSTRMYYWGQGTQVTVSS , report its polyreactivity (PSR sort gate).
Out: low polyreactivity

In: Which polyreactivity (PSR sort gate) value belongs to QVQLVESAGGLVQAGGSLRLSCAASGRTFRKYAMGRYRQAPGKERELVAAISSSGGSTFYADSVKGRFTISRDNAKNTVYLQMNSLKPEDTAVYYCAAEALRRYSFGYWGQGTQVTVSS ?
Out: low polyreactivity

In: Reported polyreactivity (PSR sort gate) for QVQLVESGGGLVQAGGSLRLSCAASGSIYYNAMGWYRQAPGKERELVAAISTSGGTTYYADSVKGRFTISRDNAKNTVYLQMNSLKPEDTAVYYCNARPSRRGAFDYWGQGTQVTVSS : what is it?
Out: high polyreactivity

In: Look at this sequence and give its reported polyreactivity (PSR sort gate). QVQLVESGGGLVQAGGSLRLSCAASGSIFAAYTMGWYRQAPGKERVFVAAITYTGGSTYYADSVKGRFTISRDNAKNTVYLQMNSLKPEDTAVYYCAARGRLCQGYYYWGQGTQVTVSS
Out: low polyreactivity

In: Give the measured polyreactivity (PSR sort gate) of QVQLVESGGGLVQAGGSLRLSCAASGYIFLYSTMGWYRQAPGKERELVAAITIGGGTYYADSVKGRFTISRDNAKNTVYLQMNSLKPEDTAVYYCNADYASYYRYSRPLEMNYWGQGTQVTVSS .
Out: low polyreactivity

Source: the nanobody polyreactivity screen of Harvey et al. (2022)
